Tested on: 786-O
Protocol Text: Euclidean distance of Cell Painting phenotypic profile (signed KS, 77 features) to DMSO centroid (dimensionless distance); 5 or 10 uM (library dependent); higher = stronger phenotypic change vs DMSO (phenoactivity)
Recorded Conditions: 48 h
Where a name gives a salt, the structure may show the parent alone.
Please enter YES where Euclidean distance is greater than or equal to 1, and NO where it is lower.

Field: example entries. Status: answers known.
O=C(O)C(O)C(O)C(=O)O (stereo unspecified) : NO
COc1ccc(CN2CCN(C(c3ccc(F)cc3)c3ccc(F)cc3)CC2)c(OC)c1OC [Lomerizine HCl] : NO
CC(=O)S[C@@H]1CC2=CC(=O)CC[C@]2(C)[C@H]2CC[C@@]3(C)[C@@H](CC[C@@]34CCC(=O)O4)[C@H]12 : NO
C[C@@H](C(=O)Nc1ccc(Cl)cc1)C1CCC(c2ccnc3ccc(F)cc23)CC1 (stereo partly specified) : YES
C=C1C[C@@]2(O)O[C@@]3(C[C@H]2C(C)C)[C@@H](C)CC[C@@H]13 : YES

Incoming: // inclusive: Euclidean distance at least 1? input: CC(=O)Oc1cc(C(C)C)c(OCCN(C)C)cc1C [Moxisylyte hydrochloride]
Outgoing: NO

Incoming: // inclusive: Euclidean distance at least 1? input: OC(CN1CCN(c2cccc(Cl)c2)CC1)C(c1ccccc1)c1ccccc1 (stereo unspecified)
Outgoing: YES

Incoming: // inclusive: Euclidean distance at least 1? input: Nc1ccc(S(=O)(=O)c2ccc(N)cc2)cc1
Outgoing: YES

Incoming: // inclusive: Euclidean distance at least 1? input: COc1ccc(S(=O)(=O)N(C(C)=O)c2ccccc2/C=C/c2cc[n+]([O-])cc2)cc1
Outgoing: YES

* * *

Test system: DU145
Protocol Text: Euclidean distance of Cell Painting phenotypic profile (signed KS, 77 features) to DMSO centroid (dimensionless distance); 5 or 10 uM (library dependent); higher = stronger phenotypic change vs DMSO (phenoactivity)
Recorded Conditions: 48 h
Counter-ions that a name gives are not always drawn.
Euclidean distance for assorted molecules

Please review the entries below; each comes with its answer.
CN(C)C(=O)c1ccc(S(=O)(=O)c2ccc(NC(=O)[C@@](C)(O)C(F)(F)F)c(Cl)c2)cc1 : 0.801
CN1CC[C@H](c2c(O)cc(O)c3c(=O)cc(-c4ccccc4Cl)oc23)[C@H](O)C1 [Flavopiridol HCl] : 3.43

Incoming: For CN(C)CCCN1c2ccccc2CCc2ccc(Cl)cc21 [Clomipramine HCl] , what is its reported Euclidean distance?
Outgoing: 1.4

Incoming: For Nc1[nH]cnc2ncnc1-2 [Adenine sulfate] , what is its reported Euclidean distance?
Outgoing: 1.17

Incoming: For CC1(C)S[C@@H]2[C@H](NC(=O)[C@H](N)c3ccc(O)cc3)C(=O)N2[C@H]1C(=O)O [Amoxicillin Sodium] , what is its reported Euclidean distance?
Outgoing: 1.56

Incoming: For CC(=O)Oc1cc(C(F)(F)F)ccc1C(=O)O [Triflusal] , what is its reported Euclidean distance?
Outgoing: 0.857

* * *

Tested on: 786-O
Protocol Text: Euclidean distance of Cell Painting phenotypic profile (signed KS, 77 features) to DMSO centroid (dimensionless distance); 5 or 10 uM (library dependent); higher = stronger phenotypic change vs DMSO (phenoactivity)
Recorded Conditions: 48 h
Structures can show the parent of a compound that is named as a salt.
Please enter 1 where Euclidean distance is greater than or equal to 1, and 0 where it is lower.

CC(C)OC(=O)[C@H](C)N[P@](=O)(OC[C@H]1O[C@@H](n2ccc(=O)[nH]c2=O)[C@](C)(F)[C@@H]1O)Oc1ccccc1 [Sofosbuvir (PSI-7977. GS-7977)] : 1

Incoming: // inclusive: Euclidean distance at least 1? input: CCN(CC)CCCC(C)Nc1ccnc2cc(Cl)ccc12 (stereo not drawn) [Chloroquine Phosphate]
Outgoing: 1

Incoming: // inclusive: Euclidean distance at least 1? input: CN[C@H](CC(C)C)C(=O)N[C@H]1C(=O)N[C@@H](CC(N)=O)C(=O)N[C@H]2C(=O)N[C@H]3C(=O)N[C@H](C(=O)N[C@H](C(=O)O)c4cc(O)cc(O)c4-c4cc3ccc4O)[C@H](O)c3ccc(c(Cl)c3)Oc3cc2cc(c3O[C@@H]2O[C@H](CO)[C@@H](O)[C@H](O)[C@H]2O[C@H]2C[C@](C)(N)[C@H](O)[C@H](C)O2)Oc2ccc(cc2Cl)[C@H]1O [Vancomycin HCl]
Outgoing: 0

Incoming: // inclusive: Euclidean distance at least 1? input: COc1cc2c(Oc3ccc4[nH]c(C)cc4c3F)ncnc2cc1OCCCN1CCCC1 [Cediranib (AZD2171)]
Outgoing: 1

Incoming: // inclusive: Euclidean distance at least 1? input: Oc1ccc(/C=C/c2cc(O)cc(O)c2)cc1 [Resveratrol]
Outgoing: 1
